ASSAY TARGET: mouse RORγ (Mus musculus, UniProt P51450)
Construct: mouse, NM_011281.2 and from Ile251 to Lys516; expressed in transfected cells; host or cells: CHO cells (transient co-transfection with pG5-Luc reporter)
Sequence (P51450 251-516): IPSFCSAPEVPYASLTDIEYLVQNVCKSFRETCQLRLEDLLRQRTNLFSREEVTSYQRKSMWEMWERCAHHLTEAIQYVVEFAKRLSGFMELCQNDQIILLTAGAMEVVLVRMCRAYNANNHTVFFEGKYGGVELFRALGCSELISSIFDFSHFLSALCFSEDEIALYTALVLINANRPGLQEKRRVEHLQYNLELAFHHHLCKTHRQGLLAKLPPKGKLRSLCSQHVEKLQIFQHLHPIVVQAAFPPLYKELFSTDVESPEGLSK
TEST DETAILS: Luciferase reporter gene assay of inhibitory effect against RORγ transcriptional activity (GAL4-mRORγ plasmid in CHO cells)
Assay type: cell-based
EXPERIMENTAL SETUP: read-out: LUC EC50 (μM) mRORg
Entries and their EC50 values follow.
MEASUREMENT NAME: EC50

INSERT INTO assay_data (compound, measurement_name, result) VALUES
  ('CCn1c(CCC(=O)NCc2cccc3ccccc23)nnc1C1Cc2ccccc2C1', 'EC50', '< 3 µM'),
  ('Cc1c(Cl)cccc1NC(=O)CCc1nnc(COC2CCCCC2)n1C1CC1', 'EC50', '< 3 µM'),
  ('Cc1ccc(NC(=O)CC(Cc2nc(=O)on2C)c2nnc([C@H]3C[C@@H](CC(C)C)C3)n2C2CC2)c(C)c1 (mixture of isomers)', 'EC50', '< 3 µM'),
  ('CC(=O)N1C[C@H](C(=O)Nc2ccc(C)cc2C)[C@@H](c2nnc([C@H]3CC[C@H](C(C)C)CC3)n2C2CC2)C1 (racemic)', 'EC50', '< 3 µM'),
  ('Cc1ccc(NC(=O)CC(CCO)c2nnc(CCC3CCCCC3)n2C2CC2)c(C)c1 (racemic)', 'EC50', '< 3 µM'),
  ('Cc1cccc(CNC(=O)CCc2nnc(CCC(C)C)n2C2CC2)c1C', 'EC50', '> 3 µM'),
  ('CCC(C)(C)CCc1nnc([C@H]2CN(C(C)=O)C[C@@H]2C(=O)Nc2ccc(C)cc2C)n1C1CC1 (racemic)', 'EC50', '< 3 µM'),
  ('CC(=O)N1C[C@H](C(=O)Nc2ccc(C)cc2C)[C@@H](c2nnc(C3CN(C(=O)CC(C)(C)C)C3)n2C2CC2)C1 (racemic)', 'EC50', '> 3 µM'),
  ('CC(=O)N1C[C@H](C(=O)Nc2ccc(C)cc2C)[C@@H](c2nnc(CCCC(C)(C)C)n2C2CC2)C1 [Example F-338]', 'EC50', '< 3 µM'),
  ('Cc1ccc(NC(=O)[C@H]2CN(C(=O)N(C)C)C[C@@H]2c2nnc(CCCC(C)(C)C)n2C2CC2)c(C)c1 (racemic)', 'EC50', '< 3 µM'),
  ('CC(=O)N1C[C@H](C(=O)Nc2ccc(C)cc2C)[C@@H](c2nnc(CCC(C)C)n2C2CC2)C1 (racemic)', 'EC50', '< 3 µM'),
  ('Cc1cccc(CCNC(=O)CCc2nnc(CCC(C)C)n2C2CC2)c1', 'EC50', '> 3 µM'),
  ('Cc1ccc(NC(=O)C(C)C(CCO)c2nnc([C@H]3C[C@@H](CC(C)C)C3)n2C2CC2)c(C)c1 (single isomer, unassigned) [Example F-492]', 'EC50', '> 3 µM'),
  ('CC(=O)N1C[C@H](C(=O)Nc2ccc(C)cc2C)[C@@H](c2nnc(CCCC(C)C)n2C2CC2)C1 [Example F-315]', 'EC50', '< 3 µM'),
  ('COc1cccc(NC(=O)CCc2nnc(CCC(C)C)n2C2CC2)c1C', 'EC50', '> 3 µM');
